# target_system: Bcl-2-like protein 10 (Homo sapiens) (UniProt Q9HD36)
# assay_name: displacers of TR3 peptide from Bcl-B, primary screen, selectivity assay for Bfl-1 inhibitor project, biochemical, fluorescence polarization, FITC-TR3 peptide (AID 748);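 note: plate controls were wells without compound for no effect and wells lacking Bcl-B protein for full effect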
# protocol_conditions: FP displacement of FITC-TR3 peptide from Bcl-B; at 20 µM
The whole screen tested about 96,000 compounds, of which about 100 (0.1%) were called active.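 Rule for the calls: active = displacement above 50% at 20 µM plus a fluorescence interference ratio under 1.5; inactive = the rest.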 The full list was thinned out, with actives kept by preference. Results with a measured potency or affinity are listed apart.
Mark one answer only. Choices: 1.0 (active), 0.0 (inactive)

{"compound": "O=C(Nc1ccc(N2CCN(c3ccc(O)cc3)CC2)cc1)Oc1ccccc1", "assigned_category": 0.0}

Data request: Look up the recorded call for Cc1c(N(C(=O)c2cc(=O)[nH]c3ccccc23)C(C)C)c(=O)n(-c2ccccc2)n1C in this test.
Data returned: 0.0

Data request: Identify the outcome logged in this assay for the compound shown: COc1cccc(C=Nc2ccccc2C(=O)Nc2nccs2)c1OC
Data returned: 0.0

Data request: // param item: COc1ccc(C(CNC(=O)c2ccc(S(=O)(=O)N3CCOCC3)cc2)N2CCCCC2)cc1 (stereo not drawn) ; yields the recorded call
Data returned: 0.0

Data request: Dear colleague, could you share the recorded outcome for O=C1NC2(CCCCC2)NN1c1ccccc1 when you have a moment?
Data returned: 0.0

Data request: Any idea what this test logged for Clc1ccc(-c2nc3ccccc3n2OCc2ccccc2)cc1 ?
Data returned: 0.0

Data request: Which outcome did this test record for the compound CCOC(=O)c1c(COC(=O)c2ccco2)nc2ccccc2[n+]1[O-] ?
Data returned: 0.0

Data request: What call does the record list for Cc1cc(-c2nnc(-c3cc4ccccc4oc3=O)o2)c(C)n1-c1ccccc1 ?
Data returned: 0.0

Data request: Would you mind telling me which call this test gave Cc1nnc(NC(=O)Cc2cccs2)s1 ?
Data returned: 0.0

Data request: Kindly provide the recorded test outcome for the following compound: CC(C)(C)C1CCC2(CC1)Nc1cccc3cccc(c13)N2
Data returned: 0.0

Data request: # lookup: test call for COc1cccc(NC(=O)C(NC2CCCC2)c2ccccc2)c1 (stereo not drawn)
Data returned: 0.0

Data request: For COc1cc(C(=O)NC2CC3CCCC(C2)N3CC(=O)Nc2ccccc2)cc(OC)c1OC (stereo not drawn) , what call appears in the results of this test?
Data returned: 0.0

Data request: State the result this test recorded for CC(=O)c1c(COC(=O)c2ccco2)nc2ccccc2[n+]1[O-] .
Data returned: 1.0

Value source: PubChem BioAssay AID748
